Test system: 648629-189-R-J1-PDC spheroids with HUVEC/MSC, viability
Assay: Anticancer human tumor 648629-189-R-J1-PDC patient-derived bladder carcinoma cell line growth inhibition [PI3K]
Conditions: second compound 0.316 µM; first compound 10 µM; hits give low values
Class definitions on viability, T/C: band 1 = under 8%, band 2 = from 8% up to 40%, band 3 = 40% and over

Which category fits this record: CC(Cn1ccc(-c2ccc(C#N)c(Cl)c2)n1)NC(=O)c1cc(C(C)O)[nH]n1 (stereo unspecified) + COc1c(OCCCN2CCOCC2)ccc2c3n(c(=NC(=O)c4cnc(N)nc4)nc12)CCN3
band 2

// repeat for CNC(=O)c1ccc(N2C(=S)N(c3ccc(C#N)c(C(F)(F)F)c3)C(=O)C2(C)C)cc1F + CC(Nc1ncnc2nc[nH]c12)c1cc2cccc(Cl)c2c(=O)n1-c1ccccc1 and report
band 3

// repeat for CNC(=O)c1ccc(N2C(=S)N(c3ccc(C#N)c(C(F)(F)F)c3)C(=O)C2(C)C)cc1F + Cc1nc(NC(=O)N2CCCC2C(N)=O)sc1-c1ccnc(C(C)(C)C(F)(F)F)c1 and report
band 3

// repeat for CC1(C)CCC(CN2CCN(c3ccc(C(=O)NS(=O)(=O)c4ccc(NCC5CCOCC5)c([N+](=O)[O-])c4)c(Oc4cnc5[nH]ccc5c4)c3)CC2)=C(c2ccc(Cl)cc2)C1 + Cc1nc(NC(=O)N2CCCC2C(N)=O)sc1-c1ccnc(C(C)(C)C(F)(F)F)c1 and report
band 2

// repeat for CC1(C)CCC(Nc2ncc(C(F)(F)F)c(-c3c[nH]c4c(P(C)(C)=O)c(C#N)ccc34)n2)CN1 (stereo unspecified) + COc1c(OCCCN2CCOCC2)ccc2c3n(c(=NC(=O)c4cnc(N)nc4)nc12)CCN3 and report
band 1

// repeat for CC1(C)CCC(CN2CCN(c3ccc(C(=O)NS(=O)(=O)c4ccc(NCC5CCOCC5)c([N+](=O)[O-])c4)c(Oc4cnc5[nH]ccc5c4)c3)CC2)=C(c2ccc(Cl)cc2)C1 + COc1c(OCCCN2CCOCC2)ccc2c3n(c(=NC(=O)c4cnc(N)nc4)nc12)CCN3 and report
band 2

// repeat for Cn1ncc(Cl)c1-c1cc(C(=O)NC(CN)Cc2cccc(F)c2)sc1Cl (stereo unspecified) + COc1c(OCCCN2CCOCC2)ccc2c3n(c(=NC(=O)c4cnc(N)nc4)nc12)CCN3 and report
band 1

// repeat for Cn1nccc1Nc1nccc(-c2ccn(C(CO)c3ccc(Cl)c(F)c3)c(=O)c2)n1 (stereo unspecified) + COc1c(OCCCN2CCOCC2)ccc2c3n(c(=NC(=O)c4cnc(N)nc4)nc12)CCN3 and report
band 3

// repeat for C=CC(=O)N1CCN(c2nc(=O)n(-c3c(C)ccnc3C(C)C)c3nc(-c4c(O)cccc4F)c(F)cc23)C(C)C1 (stereo unspecified) + Cc1nc(NC(=O)N2CCCC2C(N)=O)sc1-c1ccnc(C(C)(C)C(F)(F)F)c1 and report
band 3

// repeat for CCCS(=O)(=O)Nc1ccc(F)c(C(=O)c2c[nH]c3ncc(-c4ccc(Cl)cc4)cc23)c1F + COc1c(OCCCN2CCOCC2)ccc2c3n(c(=NC(=O)c4cnc(N)nc4)nc12)CCN3 and report
band 1

* * *

Tested on: 648629-189-R-J1-PDC spheroids with HUVEC/MSC, viability
Experiment: Anticancer human tumor 648629-189-R-J1-PDC cell line growth inhibition [PI3K];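 also: spheroids exposed to agents for seven days before reading; percent of vehicle control luminescence where 100% = DMSO treated spheroids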
Settings: second compound 1 µM; first compound 10 µM; hits give low values
compounds and their reported viability, T/C
Kindly answer with a numeric value in %, unit omitted.

These recorded examples may help you get a feel for the data.
compound	unit_label	experimental_value
Cn1nccc1Nc1nccc(-c2ccn(C(CO)c3ccc(Cl)c(F)c3)c(=O)c2)n1 (stereo not given) + Cc1nc(NC(=O)N2CCCC2C(N)=O)sc1-c1ccnc(C(C)(C)C(F)(F)F)c1	%	70.6
C#Cc1c(F)ccc2cc(O)cc(-c3ncc4c(N5CC6CCC(C5)N6)nc(OCC56CCCN5CC(F)C6)nc4c3F)c12 (stereo not given) + Cc1nc(NC(=O)N2CCCC2C(N)=O)sc1-c1ccnc(C(C)(C)C(F)(F)F)c1	%	70.5

Can you look up viability, T/C on 648629-189-R-J1-PDC spheroids with HUVEC/MSC, viability for Cn1ncc(Cl)c1-c1cc(C(=O)NC(CN)Cc2cccc(F)c2)sc1Cl (stereo not given) + Cc1nc(NC(=O)N2CCCC2C(N)=O)sc1-c1ccnc(C(C)(C)C(F)(F)F)c1 ?
1.42

// repeat for C[C@@H](NC(=O)c1ncnc(N)c1Cl)c1ncc(C(=O)Nc2cc(C(F)(F)F)c(Cl)cn2)s1 + CC(Nc1ncnc2nc[nH]c12)c1cc2cccc(Cl)c2c(=O)n1-c1ccccc1 and report
116

// repeat for Cn1nccc1Nc1nccc(-c2ccn(C(CO)c3ccc(Cl)c(F)c3)c(=O)c2)n1 (stereo not given) + CC(Nc1ccc2c(c1)OCCn1cc(N3C(=O)OCC3C(F)F)nc1-2)C(N)=O and report
62.3
